Catalogue of phosphorylation enrichment values
Target: Fes (UniProt P07332)
Sequence (P07332 whole entry, looked up): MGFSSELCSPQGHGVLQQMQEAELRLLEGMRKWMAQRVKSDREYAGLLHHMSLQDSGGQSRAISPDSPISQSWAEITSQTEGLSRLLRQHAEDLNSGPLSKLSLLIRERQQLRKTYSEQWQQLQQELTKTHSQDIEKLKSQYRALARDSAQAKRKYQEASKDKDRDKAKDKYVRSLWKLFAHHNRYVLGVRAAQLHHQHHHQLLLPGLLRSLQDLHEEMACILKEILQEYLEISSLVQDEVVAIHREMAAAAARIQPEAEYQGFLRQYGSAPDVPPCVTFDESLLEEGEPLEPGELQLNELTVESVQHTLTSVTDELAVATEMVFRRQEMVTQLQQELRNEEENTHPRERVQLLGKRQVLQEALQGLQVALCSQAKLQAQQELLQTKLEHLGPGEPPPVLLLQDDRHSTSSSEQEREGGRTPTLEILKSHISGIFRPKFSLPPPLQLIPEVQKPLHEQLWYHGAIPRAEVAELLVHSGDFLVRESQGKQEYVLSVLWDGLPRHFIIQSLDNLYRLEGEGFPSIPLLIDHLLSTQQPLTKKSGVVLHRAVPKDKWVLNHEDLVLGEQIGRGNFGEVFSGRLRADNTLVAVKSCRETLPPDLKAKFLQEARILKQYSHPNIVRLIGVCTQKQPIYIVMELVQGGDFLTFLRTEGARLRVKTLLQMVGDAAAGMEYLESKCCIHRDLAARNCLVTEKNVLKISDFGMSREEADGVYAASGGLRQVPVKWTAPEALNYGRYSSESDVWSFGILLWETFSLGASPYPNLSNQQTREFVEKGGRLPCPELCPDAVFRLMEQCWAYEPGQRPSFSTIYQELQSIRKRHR
Assay: phosphorylation enrichment, bacterial display (enrichment ratio); higher = better substrate or ligand; peptides without Tyr show the background;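 also: 11-residue human phosphosite peptides and single-mutation variants displayed on the E. coli surface, counted by deep sequencing, each peptide's frequency after selection divided by its frequency in the unselected input library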;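 also: frequency after pTyr selection over input frequency; kinase dosed for 20-30% of maximal phosphorylation in three min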

Worked examples, 3 sequences total:
Request: API: value(readout= phosphorylation enrichment, system= Fes (UniProt P07332), query= SIKDKYLTALF [KCNH2_Y611_V612L_YF] )
Response: 0.784

Request: API: value(readout= phosphorylation enrichment, system= Fes (UniProt P07332), query= LSGVIYVILRK [PMP22_Y153] )
Response: 0.823

Request: API: value(readout= phosphorylation enrichment, system= Fes (UniProt P07332), query= RPYSPYIIRGM [LRP5_Y1531_R1529S] )
Response: 0.816

New cases:
Request: API: value(readout= phosphorylation enrichment, system= Fes (UniProt P07332), query= ELTTCYRKKCC [CCBE1_Y70] )
Response: 0.785

Entry source: the supplement of paper PMC10065799
